The reported measurements were obtained from ChEMBL document CHEMBL5150037.

system-name: Poly [ADP-ribose] polymerase 2 (Homo sapiens)
assay-remarks: Inhibition of PARP-2 (unknown origin)
pIC50: −log10 of the molar value.
Assign class 1 to entries whose pIC50 meets or exceeds 7; assign class 0 to the rest.

# molecule, class-name
data = [
    ("CCc1cc2ncc(CN3CC(Nc4ccc(C(=O)NC)nc4)C3)cc2[nH]c1=O", "class 0"),
]

Quick check, pIC50 >= 7? CCc1cc2ncc(CN3CCc4nc(C(=O)NC)ccc4C3)cc2[nH]c1=O
class 0

Quick check, pIC50 >= 7? CCc1cc2ncc(CN3CCN(c4ccc5cc[nH]c5n4)CC3)cc2[nH]c1=O
class 1

----------
system-name: Poly [ADP-ribose] polymerase 1 (Homo sapiens, UniProt P09874)
Sequence (P09874 whole entry): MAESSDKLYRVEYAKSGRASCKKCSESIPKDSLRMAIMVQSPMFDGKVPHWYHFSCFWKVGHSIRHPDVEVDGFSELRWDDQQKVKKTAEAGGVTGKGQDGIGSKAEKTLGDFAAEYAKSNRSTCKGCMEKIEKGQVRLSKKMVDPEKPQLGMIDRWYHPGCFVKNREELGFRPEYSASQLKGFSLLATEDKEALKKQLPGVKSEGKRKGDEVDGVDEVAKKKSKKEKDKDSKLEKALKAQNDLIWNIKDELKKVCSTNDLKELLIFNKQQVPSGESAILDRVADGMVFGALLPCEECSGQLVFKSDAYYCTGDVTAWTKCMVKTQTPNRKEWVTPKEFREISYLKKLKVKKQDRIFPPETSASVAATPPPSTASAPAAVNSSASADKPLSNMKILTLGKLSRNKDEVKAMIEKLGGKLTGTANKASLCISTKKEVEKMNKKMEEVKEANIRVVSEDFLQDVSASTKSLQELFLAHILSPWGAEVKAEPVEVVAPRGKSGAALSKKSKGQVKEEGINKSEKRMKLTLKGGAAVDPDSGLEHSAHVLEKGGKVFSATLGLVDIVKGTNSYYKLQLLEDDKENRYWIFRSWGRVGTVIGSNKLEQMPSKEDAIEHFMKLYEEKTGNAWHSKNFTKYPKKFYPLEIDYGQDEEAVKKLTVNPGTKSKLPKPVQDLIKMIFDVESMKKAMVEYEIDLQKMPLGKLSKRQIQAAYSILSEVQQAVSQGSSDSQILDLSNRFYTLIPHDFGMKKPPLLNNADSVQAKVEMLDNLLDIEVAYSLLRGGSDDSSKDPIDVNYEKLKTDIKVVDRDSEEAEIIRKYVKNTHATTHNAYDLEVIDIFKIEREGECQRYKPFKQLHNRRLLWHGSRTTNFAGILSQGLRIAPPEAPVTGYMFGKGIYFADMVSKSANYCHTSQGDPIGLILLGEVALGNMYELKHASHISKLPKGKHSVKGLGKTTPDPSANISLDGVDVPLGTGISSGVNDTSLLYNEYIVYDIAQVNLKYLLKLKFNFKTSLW
assay-remarks: Inhibition of PARP-1 (unknown origin) binding to DNA assessed as DNA trapping activity
Entries and their IC50 values follow.

Request the reported IC50 associated with CCc1cc2ncc(CN3CCN(c4ccc(C(C)(C)O)nc4)CC3)cc2[nH]c1=O
> 2.5 µM

Request the reported IC50 associated with CCc1cc2ncc(CN3CC4CC(C3)N4c3ccc(C(=O)NC)nc3)cc2[nH]c1=O
> 2.5 µM

Request the reported IC50 associated with CCc1cc2ncc(CN3CCn4c(cnc4C(=O)NC)C3)cc2[nH]c1=O
> 2.5 µM

----------
system-name: Poly [ADP-ribose] polymerase 2 (Homo sapiens)
assay-remarks: Inhibition of PARP-2 (unknown origin)
Entries and their pIC50 values follow.
Remember the convention: pIC50 equals -log10 of concentration in molar.

Solved entries (count: 4):
# molecule, pIC50
records = [
    ("CCc1cc2ncc(CN3CC[C@@H](Nc4ccc(C(=O)NC)nc4)C3)cc2[nH]c1=O", 6.88),
    ("CCc1cc2ncc(CN3CCN(c4cnc5cn[nH]c5c4)CC3)cc2[nH]c1=O", 8.28),
    ("CCc1cc2ncc(CN3CCN(c4ccc5nc(C(F)(F)F)[nH]c5n4)CC3)cc2[nH]c1=O", 7.22),
    ("CCc1cc2ncc(CN3CCC(Nc4ccc(C(=O)NC)nc4)CC3)cc2[nH]c1=O", 7.40),
]

Request the reported pIC50 associated with CCc1cc2ncc(CN3CCN(c4ccc(C(=O)NC)c5nccn45)CC3)cc2[nH]c1=O
6.01

----------
system-name: Poly [ADP-ribose] polymerase 2 (Homo sapiens, UniProt Q9UGN5)
Sequence (Q9UGN5 whole entry): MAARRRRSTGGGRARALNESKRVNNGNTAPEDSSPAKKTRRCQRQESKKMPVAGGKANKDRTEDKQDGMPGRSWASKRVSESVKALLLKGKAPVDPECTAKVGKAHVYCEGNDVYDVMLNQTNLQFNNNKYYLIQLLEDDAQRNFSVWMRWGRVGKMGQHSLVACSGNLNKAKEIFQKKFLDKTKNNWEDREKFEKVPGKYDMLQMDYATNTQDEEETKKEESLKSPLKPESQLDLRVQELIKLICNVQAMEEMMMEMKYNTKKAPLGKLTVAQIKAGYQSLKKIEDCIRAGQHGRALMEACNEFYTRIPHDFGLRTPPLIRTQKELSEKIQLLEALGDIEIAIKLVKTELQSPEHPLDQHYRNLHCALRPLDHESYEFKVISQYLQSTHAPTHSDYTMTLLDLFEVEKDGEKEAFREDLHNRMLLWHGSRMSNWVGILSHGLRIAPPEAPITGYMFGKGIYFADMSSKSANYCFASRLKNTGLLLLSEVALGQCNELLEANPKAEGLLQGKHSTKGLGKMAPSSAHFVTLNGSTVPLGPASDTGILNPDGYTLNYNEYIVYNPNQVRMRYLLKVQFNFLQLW
assay-remarks: Inhibition of PARP-2 (unknown origin)
In plain terms, low IC50, meaning strictly below 20 nM, gives True, and everything else gives False.

Please review the entries below; each comes with its answer.
# molecule, class-name
measured = [
    ("CCc1cc2ncc(CN3CCN(c4ccc(OC(F)F)nc4)CC3)cc2[nH]c1=O", "False"),
    ("CCc1cc2ncc(CN3C[C@@H]4C[C@H]3CN4c3ccc(C(=O)NC)nc3)cc2[nH]c1=O", "False"),
    ("CCc1cc2ncc(CN3CC4CN(c5ccc(C(=O)NC)nc5)CC4C3)cc2[nH]c1=O (stereo not drawn)", "True"),
]

API: query returns whether the molecule falls strictly under 20 nM in IC50. Query: CCc1cc2ncc(CN3CCN(c4ccc(C(C)(C)O)nc4)CC3)cc2[nH]c1=O
False

API: query returns whether the molecule falls strictly under 20 nM in IC50. Query: CCc1cc2ncc(CN3CCN(c4ccc5[nH]ncc5n4)CC3)cc2[nH]c1=O
False

API: query returns whether the molecule falls strictly under 20 nM in IC50. Query: CCc1cc2ncc(CN3CCN(c4cc5cccc(C(=O)NC)c5cn4)CC3)cc2[nH]c1=O
False

API: query returns whether the molecule falls strictly under 20 nM in IC50. Query: CCc1cc2ncc(CN3CC4(C3)CN(c3ccc(C(=O)NC)nc3)C4)cc2[nH]c1=O
True

API: query returns whether the molecule falls strictly under 20 nM in IC50. Query: CCc1cc2ncc(CN3CCC(Nc4ccc(C(=O)NC)nc4)C3)cc2[nH]c1=O (stereo not drawn)
False

API: query returns whether the molecule falls strictly under 20 nM in IC50. Query: CCc1cc2ncc(CN3CCN(c4cc5c(cn4)NC(=O)CC5)CC3)cc2[nH]c1=O
False

API: query returns whether the molecule falls strictly under 20 nM in IC50. Query: CCc1cc2ncc(CN3CCN(c4ccc5oc(=O)[nH]c5c4)CC3)cc2[nH]c1=O
False

API: query returns whether the molecule falls strictly under 20 nM in IC50. Query: CCc1cc2ncc(CN3CC[C@H](Nc4ccc(C(=O)NC)nc4)C3)cc2[nH]c1=O
False

API: query returns whether the molecule falls strictly under 20 nM in IC50. Query: CCc1cc2ncc(CN3CCc4cc(/C=C/C(=O)NC)ccc4C3)cc2[nH]c1=O
False
